Tested on: MDA-MB-231
Assay: Induction of apoptosis in human MDA-MB-231 cells expressing p53 R280K mutant at 10 uM incubated for 24 hrs by FITC/Annexin-V staining method
Format: functional, cell-based
Activity calls are given as the source filed them. The rule behind the calls is not given here.
Can you answer with just one of these options? active, inactive

Answered cases to consult:
S=C=NCC(c1ccccc1)c1ccccc1	active
C[S+]([O-])CCCCN=C=S (configuration not stated)	inactive
S=C=NC(c1ccccc1)(c1ccccc1)c1ccccc1	inactive
S=C=NCCCc1ccccc1	active
S=C=NCc1ccccc1	active
S=C=NCC1CCCCC1	inactive

Please turn your attention to the following entry.
IN: What was the test verdict on S=C=NCCCCc1ccccc1 ?
OUT: active

---

System: Cellular tumor antigen p53 (Homo sapiens), P04637 [G245C]
Test: Induction of covalent cysteine modification at p53 G245C mutant in human NCI-H596 cells at 100 uM incubated for 1 hr by monochlorobimane fluorometric assay
Format: cell-based
Activity calls are given as the source filed them. No cut-off for these calls is given here.
Parameter call: string, one of 1.0 = active, 0.0 = inactive

Look over these answered cases.
S=C=NCCc1ccccc1	1.0
S=C=NCc1ccc(Cl)cc1	1.0
S=C=Nc1ccccc1	0.0
C[S+]([O-])CCCCN=C=S (stereo unspecified)	0.0
C=CCN=C=S	0.0

Could you now consider this next molecule?
IN: What call does the record list for S=C=NCC(c1ccccc1)c1ccccc1 ?
OUT: 1.0

---

Tested on: Cellular tumor antigen p53 (Homo sapiens), P04637 [R280K]
Experiment: Induction of p53 R280K mutant depletion in human MDA-MB-231 cells at 10 uM by immunoblot analysis
Type: cell-based
Activity calls are given as the source filed them. No cut-off for these calls is given here.
Output constraint: value belongs to label 1 = active, label 0 = inactive

Below, 10 compounds whose answers are already recorded.
S=C=NCC1CCCCC1	label 0
S=C=Nc1ccccc1	label 0
S=C=NCCCCc1ccccc1	label 1
S=C=NCc1ccccc1	label 1
COc1ccc(CN=C=S)cc1	label 1
C[C@@H](N=C=S)c1ccccc1	label 0
C=CCN=C=S	label 0
S=C=NCCCCCc1ccccc1	label 1
S=C=NCc1ccc(Oc2ccccc2)cc1	label 1
C[S+]([O-])CCCCN=C=S (stereo unspecified)	label 0

IN: Assay outcome for S=C=NCc1ccc(Cl)cc1 : what was it?
OUT: label 1

IN: I would be grateful if you could indicate the recorded call for S=C=NCCCc1ccccc1 .
OUT: label 1

IN: I'd appreciate the recorded outcome for S=C=NC(c1ccccc1)(c1ccccc1)c1ccccc1 from this test.
OUT: label 0

IN: Hi, do you know how S=C=NCCc1ccccc1 came out in this test?
OUT: label 1

IN: // outcome(item) with item = S=C=NCCCCCCc1ccccc1
OUT: label 1

IN: Per the records of this test, what outcome belongs to S=C=NCC(c1ccccc1)c1ccccc1 ?
OUT: label 1

---

Test system: Cellular tumor antigen p53 (Homo sapiens), P04637 [G245C]
Experiment: Induction of covalent cysteine modification at p53 G245C mutant in human NCI-H596 cells at 100 uM incubated for 1 hr by monochlorobimane fluorometric assay
Format: cell-based
The source made the active and inactive calls. The calls are words filed in the database; no cut-off is given here.
The reply should name one outcome from yes (1) for active, no (0) for inactive

Consider the following illustrative entries.
S=C=NC(c1ccccc1)(c1ccccc1)c1ccccc1	no (0)
S=C=NCC1CCCCC1	no (0)
COc1ccc(CN=C=S)cc1	yes (1)
S=C=NCCCc1ccccc1	yes (1)

Turning now to a further record.
IN: How did this test come out for S=C=NCc1ccccc1 ?
OUT: yes (1)
